Tested on: MCF10A
assay_info: percent viability (nuclei count relative to siNT); higher = more viable cells
assay_conditions: 20 nM; 72 h
# strict inequality: percent viability < 50% yields met, everything else yields not met

Before answering, review these 4 worked examples.
chain_sequence	assigned_label
ACUCUUUCCCUGUUGCACUAC [hsa-miR-130b-5p]	not met
UAAGGCACCCUUCUGAGUAGA [hsa-miR-506-3p]	met
CUGGACUGAGCCAUGCUACUGG [hsa-miR-1269b]	not met
UGGGGGAGAUGGGGGUUGA [hsa-miR-6870-5p]	met

Enquiry: Lab log: compare recorded percent viability with 50%; is it strictly lower for CCUCCCACACCCAAGGCUUGCA [hsa-miR-532-3p] ?
Return: met

* * *

System: MCF10A
assay_info: one-nucleolus phenotype percent effect (relative to siNT 0% and siNOL11 100%); higher = more cells with one nucleolus (ribosome biogenesis inhibition)
assay_conditions: 20 nM; 72 h
# one-nucleolus phenotype percent effect per entry
The figure you give is taken to be in %; do not add the unit.

The cases that follow already have their one-nucleolus phenotype percent effect on record.
chain_sequence	readout_units	one-nucleolus phenotype percent effect
UGAGGCUCUGUUAGCCUUGGCUC [hsa-miR-2467-5p]	%	37.5
GUGGCUCUGUAGUAAGAUGGA [hsa-miR-8057]	%	6.14
CACACAUAGCAGGUGUAUAUA [hsa-miR-4789-3p]	%	-24.6
AAAGGAGGAAAUAGGCAGGCCA [hsa-miR-3173-3p]	%	67.7
AAAAACCACAAUUACUUUUGCACCA [hsa-miR-548t-3p]	%	-19.6

Shift focus to the following entry.
Enquiry: Respond only with one-nucleolus phenotype percent effect recorded for AUGUGAUUGACGGCUGACUCCA [hsa-miR-8070]
Return: 26.5

* * *

Test system: MCF10A
assay_info: one-nucleolus phenotype percent effect (relative to siNT 0% and siNOL11 100%); higher = more cells with one nucleolus (ribosome biogenesis inhibition)
assay_conditions: 20 nM; 72 h
Entries and their one-nucleolus phenotype percent effect
Field format: number, assumed %, no unit text.

Before answering, review these 2 worked examples.
chain_sequence	target_desc	one-nucleolus phenotype percent effect, %
GAUGGUUGACCAGAGAGCACAC [hsa-miR-758-5p]	MCF10A	-21.1
CACUGUUUCACCACUGGCUCUU [hsa-miR-4676-3p]	MCF10A	-8.83

# context switch: different sequence, same one-nucleolus phenotype percent effect
Enquiry: Let me know recorded one-nucleolus phenotype percent effect for ACAGCACUGCCUGGUCAGA [hsa-miR-383-3p] , thanks.
Return: -8.43

* * *

System: MCF10A
assay_info: one-nucleolus phenotype percent effect (relative to siNT 0% and siNOL11 100%); higher = more cells with one nucleolus (ribosome biogenesis inhibition)
assay_conditions: 20 nM; 72 h
Consider the following sequences and their measured one-nucleolus phenotype percent effect readings.
The response must be a number in % with no trailing unit.

Enquiry: Name the recorded one-nucleolus phenotype percent effect of the sequence listed here: UGUCUGCCCGCAUGCCUGCCUCU [hsa-miR-346]
Return: 31

Enquiry: Tell me measured one-nucleolus phenotype percent effect for UCACUACCUGACAAUACAGU [hsa-miR-4999-3p] please.
Return: -25.2

Enquiry: Tell me measured one-nucleolus phenotype percent effect for AUCCUCUUUCGUCCUUCCCACU [hsa-miR-6881-3p] please.
Return: 22.7

Enquiry: In one line, give reported one-nucleolus phenotype percent effect of the entry UGGGAACUUAGUAGAGGUUUAA [hsa-miR-4471] .
Return: 5.31

Enquiry: // Input: UGUGACUGCAUUAUGAAAAUUCU [hsa-miR-3118] . Output its one-nucleolus phenotype percent effect only.
Return: 20.9

Enquiry: Provide one value: measured one-nucleolus phenotype percent effect of GUGGUUAUCCCUGUCCUGUUCG [hsa-miR-487b-5p]
Return: -1.37

Enquiry: Return the recorded one-nucleolus phenotype percent effect value; entry: AUGCUGACAUAUUUACUAGAGG [hsa-miR-628-5p]
Return: -9.78

Enquiry: Check the records and state one-nucleolus phenotype percent effect for CUUGGGGCAUGGAGUCCCA [hsa-miR-4260]
Return: -6.43

Enquiry: Assign one-nucleolus phenotype percent effect to the following record: ACCACUGACCGUUGACUGUACC [hsa-miR-181a-2-3p]
Return: -14.1

Enquiry: Identify measured one-nucleolus phenotype percent effect corresponding to CUGGUUUCACAUGGUGGCUUAG [hsa-miR-29b-2-5p]
Return: -3.17

Enquiry: Provide one value: measured one-nucleolus phenotype percent effect of CUACAGGCUGGAAUGGGCUCA [hsa-miR-7151-3p]
Return: 13.6
